molecular target: TNFα (Homo sapiens); assay: TNF-Induced HEK-Blue Assay; format: cell-based; details: HEK-Blue-CD40L cells, NF-kB-driven secreted alkaline phosphatase reporter; TNFα 0.5 ng/ml; 18 h; read-out: TNF induced HEK-Blue assay IC50 value
Sequence (P01375 77-233 limits assumed): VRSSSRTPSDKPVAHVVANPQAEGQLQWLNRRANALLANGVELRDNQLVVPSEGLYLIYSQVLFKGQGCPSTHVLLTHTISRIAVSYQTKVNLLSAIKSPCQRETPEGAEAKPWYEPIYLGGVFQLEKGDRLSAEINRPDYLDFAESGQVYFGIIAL
Positions of bridges follow the written chain, without caps; N, C: chain ends. Non-standard residues stand in square brackets, D forms with d. Residues, ends and D or L forms follow the SMILES beside them. Ala(morpholin-4-yl) = N[C@@H](CN1CCOCC1)C(=O)O; Bip = N[C@@H](Cc1ccc(-c2ccccc2)cc1)C(=O)O; 4Pal = N[C@@H](Cc1ccncc1)C(=O)O; Sar = CNCC(=O)O
This section presents molecules with their documented IC50 values.

Solved entries:
{"molecule": "CC(C)C[C@@H]1NC(=O)[C@H](CCCNC(=N)N)NC(=O)[C@H](C(C)C)NC(=O)[C@@H]2CCCN2C(=O)[C@H](C(C)C)NC(=O)[C@H](CCCNC(=N)N)NC(=O)[C@H](CC(=O)O)NC(=O)[C@@H]2CCCN2C(=O)CN(C)C(=O)[C@H](Cc2ccc(-c3ccccc3)cc2)NC(=O)[C@H](Cc2ccc(-c3ccccc3)cc2)NC(=O)[C@H](Cc2ccncc2)NC(=O)CSC[C@@H](C(=O)NCC(N)=O)NC1=O [Example 11] ({CH2CO}-[4Pal][Bip][Bip][Sar]PDRVPVRLCG-NH2; thioether N-13)", "IC50": "200 to 2000 nM"}
{"molecule": "CC(C)C[C@@H]1NC(=O)[C@H](Cc2ccc(O)cc2)NC(=O)[C@H](C(C)C)NC(=O)CN(C)C(=O)[C@H](C(C)C)NC(=O)[C@@H](CCCNC(=N)N)NC(=O)[C@H](CC(=O)O)NC(=O)[C@@H]2CCCN2C(=O)CN(C)C(=O)[C@H](Cc2ccc(-c3ccccc3)cc2)NC(=O)[C@H](Cc2ccc(-c3ccccc3)cc2)NC(=O)[C@H](CN2CCOCC2)NC(=O)CSC[C@@H](C(=O)NCC(N)=O)NC1=O [Example 136] ({CH2CO}-[Ala(morpholin-4-yl)][Bip][Bip][Sar]PD[dR]V[Sar]VYLCG-NH2; thioether N-13)", "IC50": "50 to 200 nM"}
{"molecule": "CC(C)C[C@@H]1NC(=O)[C@H](CCCNC(=N)N)NC(=O)[C@H](CC(C)C)NC(=O)[C@@H]2CCCN2C(=O)[C@H](C(C)C)NC(=O)[C@H](CCCNC(=N)N)NC(=O)[C@H](CC(=O)O)NC(=O)[C@@H]2CCCN2C(=O)CN(C)C(=O)[C@H](Cc2ccc(-c3ccccc3)cc2)NC(=O)[C@H](Cc2ccc(-c3ccccc3)cc2)NC(=O)[C@H](Cc2ccccc2)NC(=O)CSC[C@@H](C(=O)NCC(N)=O)NC1=O [Example 21] ({CH2CO}-F[Bip][Bip][Sar]PDRVPLRLCG-NH2; thioether N-13)", "IC50": "200 to 2000 nM"}

# ---- query molecule ----
Request body: readout IC50, system TNFα (Homo sapiens), query CC(C)C[C@@H]1NC(=O)[C@H](CCCNC(=N)N)NC(=O)[C@H](C(C)C)NC(=O)[C@@H]2CCCN2C(=O)[C@H](Cc2ccc(O)cc2)NC(=O)[C@H](CCCNC(=N)N)NC(=O)[C@H](CC(=O)O)NC(=O)[C@@H]2CCCN2C(=O)CN(C)C(=O)[C@H](Cc2ccc(-c3ccccc3)cc2)NC(=O)[C@H](Cc2ccc(-c3ccccc3)cc2)NC(=O)[C@H](CN2CCOCC2)NC(=O)CSC[C@@H](C(=O)NCC(N)=O)NC1=O [Example 56] ({CH2CO}-[Ala(morpholin-4-yl)][Bip][Bip][Sar]PDRYPVRLCG-NH2; thioether N-13) . Return the value.
50 to 200 nM
